Hey, just so you know, these numbers are from paper PMC8409943.

assay: Transepithelial transport of theaflavins across Caco-2 cell monolayers, with or without efflux transporter inhibitors; assay type: in vitro ADME, Human; conditions: human, Caco-2, with 100 μM MK-571 (MRP1, MRP2, MRP3 inhibitor), absorptive transport, 2 h incubation, + 100 μM MK-571 (MRP1, MRP2, MRP3 inhibitor)
REPORTED METRIC: Papp A→B at 2 h, 200 μM (×10⁻⁶ cm/s)
Please state the figure in ×10⁻⁶ cm/s; there is no need to write the unit.

Input line: Requested read-out: Papp A→B at 2 h, 200 μM. Entry: O=C(O[C@@H]1Cc2c(O)cc(O)cc2O[C@@H]1c1cc(O)c(=O)c2c(O)c(O)cc([C@H]3Oc4cc(O)cc(O)c4C[C@H]3OC(=O)c3cc(O)c(O)c(O)c3)c2c1)c1cc(O)c(O)c(O)c1 [TFDG, theaflavin-3, 3’-digallate]
Output line: 0.389

###

Entries annotated with measured Papp A→B at 2 h, 200 μM
Test: Transepithelial transport of theaflavins across Caco-2 cell monolayers, with or without efflux transporter inhibitors
Assay type: in vitro ADME, Human
Conditions: human, Caco-2, with 100 μM Vep (P-gp inhibitor), absorptive transport, 2 h incubation, + 100 μM Vep (P-gp inhibitor)
Description: For transport studies, Caco-2 cells were seeded at a density of 3 × 10^5 cells per well in Transwell® inserts (polycarbonate membrane, 24 mm i.d., 0.4 μm pore size, Corning Costar Corp., NY, USA) in 6-well plates (Zhang et al., [2004]). […] The inserts were washed twice with HBSS buffer and equilibrated at 37 °C for 30 min. Standard stock solutions of each theaflavin were diluted to 200 μM with HBSS. […] The recovery rate of theaflavins in the transport was calculated from the above Equation (2). […]
Could you give me the number in nm/s? Just the number is fine.

The cases that follow already have their Papp A→B at 2 h, 200 μM on record.
O=c1c(O)cc([C@H]2Oc3cc(O)cc(O)c3C[C@H]2O)cc2c([C@H]3Oc4cc(O)cc(O)c4C[C@H]3O)cc(O)c(O)c12 [TF, theaflavin] | 4.15
O=C(O[C@@H]1Cc2c(O)cc(O)cc2O[C@@H]1c1cc(O)c(=O)c2c(O)c(O)cc([C@H]3Oc4cc(O)cc(O)c4C[C@H]3O)c2c1)c1cc(O)c(O)c(O)c1 [TF3G, theaflavin-3-gallate] | 2.03
O=C(O[C@@H]1Cc2c(O)cc(O)cc2O[C@@H]1c1cc(O)c(=O)c2c(O)c(O)cc([C@H]3Oc4cc(O)cc(O)c4C[C@H]3OC(=O)c3cc(O)c(O)c(O)c3)c2c1)c1cc(O)c(O)c(O)c1 [TFDG, theaflavin-3, 3’-digallate] | 3.57

Input line: Data request, read-out Papp A→B at 2 h, 200 μM, for O=C(O[C@@H]1Cc2c(O)cc(O)cc2O[C@@H]1c1cc(O)c(O)c2c(=O)c(O)cc([C@H]3Oc4cc(O)cc(O)c4C[C@H]3O)cc12)c1cc(O)c(O)c(O)c1 [TF3’G, theaflavin-3’-gallate]
Output line: 0.55

###

assay: Transepithelial transport of theaflavins across Caco-2 cell monolayers, with or without efflux transporter inhibitors; assay type: in vitro ADME, Human; conditions: human, Caco-2, with 100 μM Vep (P-gp inhibitor), 2 h incubation, + 100 μM Vep (P-gp inhibitor)
REPORTED METRIC: efflux ratio at 2 h, 200 μM
Answer as a number with no unit attached.

O=c1c(O)cc([C@H]2Oc3cc(O)cc(O)c3C[C@H]2O)cc2c([C@H]3Oc4cc(O)cc(O)c4C[C@H]3O)cc(O)c(O)c12 [TF, theaflavin] | 0.73
O=C(O[C@@H]1Cc2c(O)cc(O)cc2O[C@@H]1c1cc(O)c(=O)c2c(O)c(O)cc([C@H]3Oc4cc(O)cc(O)c4C[C@H]3O)c2c1)c1cc(O)c(O)c(O)c1 [TF3G, theaflavin-3-gallate] | 0.86
O=C(O[C@@H]1Cc2c(O)cc(O)cc2O[C@@H]1c1cc(O)c(=O)c2c(O)c(O)cc([C@H]3Oc4cc(O)cc(O)c4C[C@H]3OC(=O)c3cc(O)c(O)c(O)c3)c2c1)c1cc(O)c(O)c(O)c1 [TFDG, theaflavin-3, 3’-digallate] | 1.53

Input line: // efflux ratio at 2 h, 200 μM lookup, key: O=C(O[C@@H]1Cc2c(O)cc(O)cc2O[C@@H]1c1cc(O)c(O)c2c(=O)c(O)cc([C@H]3Oc4cc(O)cc(O)c4C[C@H]3O)cc12)c1cc(O)c(O)c(O)c1 [TF3’G, theaflavin-3’-gallate]
Output line: 1.08

###

experiment: Transepithelial transport of theaflavins across Caco-2 cell monolayers, with or without efflux transporter inhibitors; format: in vitro ADME, Human; conditions: human, Caco-2, with 10 μM FTC (BCRP inhibitor), 2 h incubation, + 10 μM FTC (BCRP inhibitor)
Catalogue of efflux ratio at 2 h, 200 μM readings, one per entry.

As a guide, the following entries are already answered.
O=C(O[C@@H]1Cc2c(O)cc(O)cc2O[C@@H]1c1cc(O)c(=O)c2c(O)c(O)cc([C@H]3Oc4cc(O)cc(O)c4C[C@H]3OC(=O)c3cc(O)c(O)c(O)c3)c2c1)c1cc(O)c(O)c(O)c1 [TFDG, theaflavin-3, 3’-digallate] | 1.47
O=C(O[C@@H]1Cc2c(O)cc(O)cc2O[C@@H]1c1cc(O)c(O)c2c(=O)c(O)cc([C@H]3Oc4cc(O)cc(O)c4C[C@H]3O)cc12)c1cc(O)c(O)c(O)c1 [TF3’G, theaflavin-3’-gallate] | 1.26
O=c1c(O)cc([C@H]2Oc3cc(O)cc(O)c3C[C@H]2O)cc2c([C@H]3Oc4cc(O)cc(O)c4C[C@H]3O)cc(O)c(O)c12 [TF, theaflavin] | 1.05

Please look at the following compound next.
Input line: # lookup: efflux ratio at 2 h, 200 μM of O=C(O[C@@H]1Cc2c(O)cc(O)cc2O[C@@H]1c1cc(O)c(=O)c2c(O)c(O)cc([C@H]3Oc4cc(O)cc(O)c4C[C@H]3O)c2c1)c1cc(O)c(O)c(O)c1 [TF3G, theaflavin-3-gallate]
Output line: 1.41

###

System: Caco-2 cells
Test: Cytotoxicity study by CCK-8 method
Assay type: cell-based, Human
Details: 24 h, + FTC
Experimental: Standard stock solutions (1000 μM) of each theaflavin were prepared in 0.1% dimethyl sulfoxide (DMSO) in deionized water, and diluted with fresh DMEM to 100, 200, 300, 400, and 500 µmol/L respectively. Each inhibitor was prepared as instructions. […] The absorbance (OD) value was determined at 450 nm using a microplate reader (ELX-800, Bio-Tek Instruments Inc., Winooski, USA). […] The cytotoxicity of Vep, CsA, MK-571 or FTC was also determined by CCK-8 assay. […]
REPORTED METRIC: pIC50
Here pIC50 is given on a logarithmic scale as minus log10 of the concentration in mol/L.

These solved cases illustrate the format of a correct answer.
O=C(O[C@@H]1Cc2c(O)cc(O)cc2O[C@@H]1c1cc(O)c(=O)c2c(O)c(O)cc([C@H]3Oc4cc(O)cc(O)c4C[C@H]3OC(=O)c3cc(O)c(O)c(O)c3)c2c1)c1cc(O)c(O)c(O)c1 [TFDG, theaflavin-3, 3’-digallate] | 3.24
O=C(O[C@@H]1Cc2c(O)cc(O)cc2O[C@@H]1c1cc(O)c(=O)c2c(O)c(O)cc([C@H]3Oc4cc(O)cc(O)c4C[C@H]3O)c2c1)c1cc(O)c(O)c(O)c1 [TF3G, theaflavin-3-gallate] | 3.29
O=C(O[C@@H]1Cc2c(O)cc(O)cc2O[C@@H]1c1cc(O)c(O)c2c(=O)c(O)cc([C@H]3Oc4cc(O)cc(O)c4C[C@H]3O)cc12)c1cc(O)c(O)c(O)c1 [TF3’G, theaflavin-3’-gallate] | 3.36

Please look at the following compound next.
Input line: Item O=c1c(O)cc([C@H]2Oc3cc(O)cc(O)c3C[C@H]2O)cc2c([C@H]3Oc4cc(O)cc(O)c4C[C@H]3O)cc(O)c(O)c12 [TF, theaflavin] has what recorded pIC50?
Output line: 3.31
